Examples of compounds with documented zone of inhibition at 30 mg/disc follow.
- Test system: Mannhemia hemolytica KB345
- Test: Paper disc assay, M. hemolytica KB345 (Tilmicosin-sensitivity strain)
- Type: cell-based
- Settings: 24 h, Table 2; 30 mg/6 mm disk
- Protocol: (1) Antibacterial Activities Against Mannheimia and Pasteurella were Determined by the Following Steps: 1) M. hemolytica KB345 (Tilmicosin-sensitivity strain) and M. hemolytica KB346 (Tilmicosin-low sensitivity strain) were provided. KB 345 strain stored at −80° C. was seeded to BHIB agar medium (10 mL) by using Microbank beads (Pro-Lab) and platinum nail. […] 4) After one day, the inhibition zone diameter and clarity (A to E) were determined.

| Compound | zone of inhibition at 30 mg/disc [mm] |
| --- | --- |
| CC[C@H]1OC(=O)C[C@@H](O)[C@H](C)[C@@H](O[C@@H]2OC(C)[C@@H](O)C(N(C)C)C2O)[C@@H](CCn2cc(-c3cc(C)c(C)cc3C)nn2)C[C@@H](C)C(=O)/C=C/C(C)=C/[C@@H]1CO[C@@H]1OC(C)[C@@H](O)C(OC)C1OC (stereo partly drawn) [YT25] | 17 |
| CC[C@H]1OC(=O)C[C@@H](O)[C@H](C)[C@@H](O[C@@H]2OC(C)[C@@H](O)C(N(C)C)C2O)[C@@H](CCn2cc(-c3ccc(Oc4ccccc4)cc3)nn2)C[C@@H](C)C(=O)/C=C/C(C)=C/[C@@H]1CO[C@@H]1OC(C)[C@@H](O)C(OC)C1OC (stereo partly drawn) [YT24] | 17 |
| CCOC(=O)c1cn(CC[C@H]2C[C@@H](C)C(=O)/C=C/C(C)=C/[C@H](CO[C@@H]3OC(C)[C@@H](O)C(OC)C3OC)[C@@H](CC)OC(=O)C[C@@H](O)[C@H](C)[C@H]2O[C@@H]2OC(C)[C@@H](O)C(N(C)C)C2O)nn1 (stereo partly drawn) [YT22] | 18 |

====

- Test system: Mannhemia hemolytica KB345
- Test: Paper disc assay, M. hemolytica KB345 (Tilmicosin-sensitivity strain)
- Format: cell-based
- Settings: 24 h, Table 2; 30 mg/6 mm disk
Attribute measured: zone of inhibition at 30 mg/disc

| Compound | Attribute measured | Readout value |
| --- | --- | --- |
| CC[C@H]1OC(=O)C[C@@H](O)[C@H](C)[C@@H](O[C@@H]2OC(C)[C@@H](O)C(N(C)C)C2O)[C@@H](CCn2cc(-c3cnc4ccccc4c3)nn2)C[C@@H](C)C(=O)/C=C/C(C)=C/[C@@H]1CO[C@@H]1OC(C)[C@@H](O)C(OC)C1OC (stereo partly shown) [YT35] | zone of inhibition at 30 mg/disc | 19 mm |
| CC[C@H]1OC(=O)C[C@@H](O)[C@H](C)[C@@H](O[C@@H]2OC(C)[C@@H](O)C(N(C)C)C2O)[C@@H](CCn2cc(-c3ccc(N)cc3)nn2)C[C@@H](C)C(=O)/C=C/C(C)=C/[C@@H]1CO[C@@H]1OC(C)[C@@H](O)C(OC)C1OC (stereo partly shown) [YT18] | zone of inhibition at 30 mg/disc | 17 mm |
| CC[C@H]1OC(=O)C[C@@H](O)[C@H](C)[C@@H](O[C@@H]2OC(C)[C@@H](O)C(N(C)C)C2O)[C@@H](CCn2cc(-c3ccc(N(C)C)cc3)nn2)C[C@@H](C)C(=O)/C=C/C(C)=C/[C@@H]1CO[C@@H]1OC(C)[C@@H](O)C(OC)C1OC (stereo partly shown) [YT29] | zone of inhibition at 30 mg/disc | 17.5 mm |
| CC[C@H]1OC(=O)C[C@@H](O)[C@H](C)[C@@H](O[C@@H]2OC(C)[C@@H](O)C(N(C)C)C2O)[C@@H](CCn2cc(-c3ccc(C(C)(C)C)cc3)nn2)C[C@@H](C)C(=O)/C=C/C(C)=C/[C@@H]1CO[C@@H]1OC(C)[C@@H](O)C(OC)C1OC (stereo partly shown) [YT26] | zone of inhibition at 30 mg/disc | 14 mm |

Where do these numbers come from? They come from patent US9593140B2.
